Test system: Bacillus subtilis
assay.info: Antibacterial activity against Bacillus subtilis ATCC 6051 after 18 hrs
Type: functional
experimental.conditions: ATCC 6051, 18 h
Catalogue of compounds with associated MIC
Answer format: numeric, µg/mL implied, no suffix.

Answered cases to consult:
1. Cc1ccc(C(=O)CN2CCN(c3c(F)cc4c(=O)c(C(=O)O)cn5c4c3OC[C@@H]5C)CC2)cc1 | 0.5
2. C[C@H]1COc2c(N3CCN(C/C(=N\O)c4ccc(Cl)cc4Cl)CC3)c(F)cc3c(=O)c(C(=O)O)cn1c23 | 1
3. C[C@H]1COc2c(N3CCN(C/C(=N\O)c4ccccc4)CC3)c(F)cc3c(=O)c(C(=O)O)cn1c23 | 0.25
4. COc1ccc(C(=O)CN2CCN(c3c(F)cc4c(=O)c(C(=O)O)cn5c4c3OC[C@@H]5C)CC2)cc1 | 0.25
5. COc1ccc(/C(CN2CCN(c3c(F)cc4c(=O)c(C(=O)O)cn5c4c3OC[C@@H]5C)CC2)=N/O)cc1 | 0.12

Check the records and state MIC for C[C@H]1COc2c(N3CCN(CC(=O)c4ccccc4)CC3)c(F)cc3c(=O)c(C(=O)O)cn1c23
0.5

Check the records and state MIC for C[C@H]1COc2c(N3CCN(C/C(=N\O)c4ccc(Cl)cc4)CC3)c(F)cc3c(=O)c(C(=O)O)cn1c23
0.25

Check the records and state MIC for Cc1ccc(/C(CN2CCN(c3c(F)cc4c(=O)c(C(=O)O)cn5c4c3OC[C@@H]5C)CC2)=N/O)cc1
0.5

Where these numbers come from: ChEMBL document CHEMBL1147210
